Below: a set of entries, each annotated with reported IC50.
# Tested on: Plasmodium falciparum
# assay protocol: Antiplasmodial activity against chloroquine-sensitive Plasmodium falciparum 3D7 after 72 hrs by SYBR Green-1 staining-based fluorescence assay
# Assay type: functional, organism-based
# condition notes: 3D7, 72 h

# smiles data, quantity unit, measurement qualifier, IC50
measured = [
    ("CC(C)C[C@H](Nc1ccnc2cc(Cl)ccc12)C(=O)N1CCN(C)CC1", "nM", "=", 60.2),
    ("CCN(CC)CCCNC(=O)[C@H](C)Nc1ccnc2cc(Cl)ccc12", "nM", "=", 82.6),
    ("CC(C)[C@H](CC(=O)N1CCN(C)CC1)Nc1ccnc2cc(Cl)ccc12", "nM", "=", 44.1),
    ("CC[C@H](C)[C@@H](CC(=O)N1CCN(C)CC1)Nc1ccnc2cc(Cl)ccc12", "nM", "=", 33),
    ("CN1CCN(C(=O)CNc2ccnc3cc(Cl)ccc23)CC1", "nM", "=", 149),
    ("CSCC[C@H](Nc1ccnc2cc(Cl)ccc12)C(=O)N1CCN(C)CC1", "nM", "=", 58.4),
    ("C[C@H](Nc1ccnc2cc(Cl)ccc12)C(=O)N1CCN(c2ccccc2)CC1", "nM", ">", 500),
    ("CN1CCN(C(=O)[C@H](Cc2c[nH]c3ccccc23)Nc2ccnc3cc(Cl)ccc23)CC1", "nM", "=", 223),
    ("CN1CCN(C(=O)CC[C@H](Cc2ccccc2)Nc2ccnc3cc(Cl)ccc23)CC1", "nM", "=", 11.5),
    ("C[C@H](O)[C@H](Nc1ccnc2cc(Cl)ccc12)C(=O)N1CCN(C)CC1", "nM", "=", 142),
]
